Target: T1, CRBN, Q96SW2;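 also: pooled lentiviral library of zinc finger degron-EGFP fusions in mCherry-positive Jurkat cells, FACS-sorted after compound exposure, with degron abundance counted by next-generation sequencing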
T1 chain: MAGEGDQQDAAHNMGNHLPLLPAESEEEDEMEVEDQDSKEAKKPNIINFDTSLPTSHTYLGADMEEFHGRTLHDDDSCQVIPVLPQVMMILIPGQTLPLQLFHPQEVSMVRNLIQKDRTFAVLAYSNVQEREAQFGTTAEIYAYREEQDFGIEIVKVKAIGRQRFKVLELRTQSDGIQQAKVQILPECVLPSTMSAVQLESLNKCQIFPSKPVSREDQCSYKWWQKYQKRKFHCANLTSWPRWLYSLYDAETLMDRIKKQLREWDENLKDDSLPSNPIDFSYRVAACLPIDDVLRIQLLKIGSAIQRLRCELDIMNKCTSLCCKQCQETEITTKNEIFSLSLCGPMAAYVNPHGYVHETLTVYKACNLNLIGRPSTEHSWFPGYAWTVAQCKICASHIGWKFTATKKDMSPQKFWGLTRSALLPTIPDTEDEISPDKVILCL
Test: log2 fold change of degron read counts, EGFP-low vs EGFP+ sorted cells (limma voom), compound-induced degradation; higher = more compound-induced degradation of the degron-EGFP fusion; degrons are variants of IKZF1/3 zinc finger 2; compound dose not given here
Conditions: Jurkat; 18 h; compound: compound 22 (5-morpholino-thalidomide)
The full ranking holds about 8,300 sequences; the median of “log2 fold change of degron read counts, EGFP-low vs EGFP+ sorted cells (limma voom), compound-induced degradation” is about -1.1, and the highest 2% start at about 3.2. The entries come from a sample that favours the highest values as a whole.
Binary call on log2 fold change of degron read counts: criterion met from -1 upward, criterion not met beneath that.

Look over these answered cases.
Query: log2 fold change of degron read counts >= -1 for FWCNVCGAAFTQKGNLLRHIKL [46F_47W_49N_50V_52G_53A_54A_55F_67L_, Q9UKT9] ?
Reply: criterion met

Query: Check the entry FCCEVCGAAFTQKGNLLRHIKL [46F_47C_49E_50V_52G_53A_54A_55F_67L_, Q9UKT9] : does log2 fold change of degron read counts equal or exceed -1?
Reply: criterion met

Query: Please tell me: is the sequence FMCEVCGAAFTQKGNLLRHIKL [46F_47M_49E_50V_52G_53A_54A_55F_67L_, Q9UKT9] at or over -1 in terms of log2 fold change of degron read counts?
Reply: criterion met

Query: Kindly determine if log2 fold change of degron read counts recorded for FSCDQCGAAFTQKGNLLRHIKL [46F_47S_49D_50Q_52G_53A_54A_55F_67L_, Q9UKT9] is above or exactly -1.
Reply: criterion not met

Query: Exam item: decide whether the reported log2 fold change of degron read counts for FICEQCGAIFTQKGNLLRHIKL [46F_47I_49E_50Q_52G_53A_54I_55F_67L_, Q9UKT9] is at least -1.
Reply: criterion not met

Query: Is it the case that FQCEQCGAWFTQKGNLLRHIKL [46F_47Q_49E_50Q_52G_53A_54W_55F_67L_, Q9UKT9] has log2 fold change of degron read counts reaching or exceeding -1?
Reply: criterion not met

Then this sequence:
Query: Determine whether this sequence has log2 fold change of degron read counts no lower than -1: FYCNVCGAAFTQKGNLLRHIKL [46F_47Y_49N_50V_52G_53A_54A_55F_67L_, Q9UKT9]
Reply: criterion met
